Every entry's value here was drawn from patent US20240109865A1.

We begin with a simple list: items and their reported Kd.
target: FGFR2 (Homo sapiens (Human), UniProt P21802); assay: Kinase assay, binding constants (Kd), kinase-tagged T7 phage, qPCR
Sequence (P21802 22-821): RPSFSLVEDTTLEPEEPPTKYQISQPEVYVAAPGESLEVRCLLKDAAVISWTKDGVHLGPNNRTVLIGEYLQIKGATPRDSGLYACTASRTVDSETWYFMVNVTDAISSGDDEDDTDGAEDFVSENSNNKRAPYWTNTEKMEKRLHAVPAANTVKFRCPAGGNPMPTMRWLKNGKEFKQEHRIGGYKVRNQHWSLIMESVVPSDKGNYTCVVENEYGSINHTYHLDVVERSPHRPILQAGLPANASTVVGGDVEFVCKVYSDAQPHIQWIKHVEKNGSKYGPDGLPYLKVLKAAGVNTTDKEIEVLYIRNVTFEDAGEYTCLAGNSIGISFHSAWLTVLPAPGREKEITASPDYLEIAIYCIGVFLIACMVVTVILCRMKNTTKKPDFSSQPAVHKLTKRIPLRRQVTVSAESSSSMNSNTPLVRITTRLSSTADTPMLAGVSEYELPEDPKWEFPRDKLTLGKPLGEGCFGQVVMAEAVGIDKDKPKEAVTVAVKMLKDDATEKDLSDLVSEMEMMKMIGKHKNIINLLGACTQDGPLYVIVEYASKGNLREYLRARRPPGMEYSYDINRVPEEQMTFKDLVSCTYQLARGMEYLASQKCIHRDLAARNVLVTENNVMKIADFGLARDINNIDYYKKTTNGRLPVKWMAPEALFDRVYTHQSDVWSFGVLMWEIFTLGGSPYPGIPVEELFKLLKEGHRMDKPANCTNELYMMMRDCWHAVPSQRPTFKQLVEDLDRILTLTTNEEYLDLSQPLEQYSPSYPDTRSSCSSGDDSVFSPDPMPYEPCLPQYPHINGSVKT
Value type: Kd

{"Compound": "C[C@@H](Oc1ccc2[nH]nc(-c3ccc(N4CCN(C(N)=O)C5(CC5)C4)nc3)c2c1)c1c(Cl)cncc1Cl", "Measured result": "1 to 20 nM"}
{"Compound": "COc1cc2[nH]nc(-c3cnc(N4CC5CC(C4)N5)c(C)c3)c2cc1O[C@H](C)c1c(C)cnnc1C", "Measured result": "1 to 20 nM"}
{"Compound": "CCOC(=O)N1CC2(C1)CN(c1ccc(-c3n[nH]c4ccc(O[C@@H](C)c5c(C)cnnc5C)cc34)cn1)C2", "Measured result": "100 to 300 nM"}
{"Compound": "CCS(=O)(=O)N1CC2(CN(c3ccc(-c4n[nH]c5ccc(O[C@H](C)c6c(Cl)cncc6Cl)cc45)cn3)C2)C1", "Measured result": "20 to 100 nM"}
{"Compound": "COC1CC2(C1)CN(c1ccc(-c3n[nH]c4ccc(O[C@H](C)c5c(Cl)cnc(C)c5Cl)cc34)cn1)C2", "Measured result": "20 to 100 nM"}
{"Compound": "C[C@@H](Oc1ccc2[nH]nc(-c3cnn(C4CCN(C5COC5)CC4)c3)c2c1)c1c(Cl)cncc1Cl", "Measured result": "1 to 20 nM"}
{"Compound": "COC(=O)N1CCCC2(C1)CN(c1ccc(-c3n[nH]c4ccc(O[C@H](C)c5c(C)cnnc5C)cc34)cn1)C2", "Measured result": "1 to 20 nM"}
{"Compound": "CNCc1cc(-c2n[nH]c3ccc(O[C@H](C)c4c(Cl)cncc4Cl)cc23)cnc1N1CC2(C1)CN(S(C)(=O)=O)C2", "Measured result": "> 300 nM"}
{"Compound": "C[C@@H](Oc1ccc2[nH]nc(-c3cnc(N4CCC4CN(C)C)c(C#N)c3)c2c1)c1c(Cl)cncc1Cl (some centres unmarked)", "Measured result": "> 300 nM"}
{"Compound": "Cc1cc(-c2n[nH]c3ccc(O[C@H](C)c4c(Cl)cnc(C)c4Cl)cc23)cnc1N1CC2(CCOC2)C1", "Measured result": "20 to 100 nM"}
{"Compound": "C[C@@H](Oc1ccc2[nH]nc(-c3cnn(C4CCN(C)CC4)c3)c2c1)c1c(Cl)cncc1Cl", "Measured result": "1 to 20 nM"}
{"Compound": "C[C@@H](Oc1ccc2[nH]nc(-c3cnn(C4CCN(C(=O)N(C)C)CC4)c3)c2c1)c1c(Cl)cncc1Cl", "Measured result": "1 to 20 nM"}
{"Compound": "Cc1ncc(Cl)c([C@@H](C)Oc2cc3c(-c4cnc(N5CC6(C5)CN(S(C)(=O)=O)C6)c(F)c4)n[nH]c3cc2Cl)c1Cl", "Measured result": "20 to 100 nM"}
{"Compound": "C[C@@H](Oc1ccc2[nH]nc(-c3cnc(N4CCN(S(C)(=O)=O)CC4)nc3)c2c1)c1c(Cl)cncc1Cl", "Measured result": "20 to 100 nM"}
